assayed_target: UniProt P0DTD1
test_method_notes: biochemical
condition_set: read-out: IC50 against SARS-CoV-2 PLpro
readout_name: pIC50
Just so you know, pIC50 here is -log10 of the concentration in molar units; reply with that number alone.

Could you share which pIC50 value was measured for Cc1cc2nc3c(=O)[nH]c(=O)nc-3n(C[C@H](O)[C@H](O)[C@H](O)COP(=O)(O)OP(=O)(O)OC[C@H]3O[C@@H](n4cnc5c(N)ncnc54)[C@H](O)[C@@H]3O)c2cc1C [FAD disodium] ?
4.91
